Where do these numbers come from? They come from paper PMC4942610.

assay.text: Cell viability assay (WST-1)
experimental.setup: human, Huh7-J20 cells
recorded.endpoint: CC50 at 3 d (µM)
Use µM as the unit, but write only the number.

Field: example entries. Status: answers known.
INSERT INTO results (compound, recorded_endpoint, observed_measurement) VALUES
  ('O=C(Cn1c(=O)ccn(CCCCCOc2ccc(Br)cc2)c1=O)Nc1ccc(Oc2ccccc2)cc1 [Z263]', 'CC50 at 3 d', 56.3),
  ('CN(C(=O)Cn1c(=O)ccn(CCCCCOc2ccc(Br)cc2)c1=O)c1ccc(Oc2ccccc2)cc1 [Z431]', 'CC50 at 3 d', 2.67);

Query compound follows.
Data point: O=C(Cn1c(=O)ccn(Cc2ccccc2)c1=O)Nc1ccc(Oc2ccccc2)cc1 [Z176] ; CC50 at 3 d = 17.6

* * *

Form: system (Huh7-J20 cells), quantity (CC50), values below.
Field: value (include unit after the number)

Field: example entries. Status: answers known.
INSERT INTO measurements (chemical_structure, observed_measurement) VALUES
  ('O=C(Cn1c(=O)ccn(CCCCCOc2ccc(Br)cc2)c1=O)Nc1ccc(OCc2ccccc2)cc1', '18.4 µM'),
  ('O=C(Cn1c(=O)ccn(CCCCOCc2ccc(Br)cc2)c1=O)Nc1ccc(Oc2ccccc2)cc1', '19.2 µM'),
  ('O=C(Cn1c(=O)ccn(CCCCCOc2ccc(Br)cc2)c1=O)Nc1ccc(Oc2ccc(Cl)cc2)cc1', '59.2 µM'),
  ('O=C(Cn1c(=O)ccn(CCCCCOc2ccc(Br)cc2)c1=O)Nc1ccc(Oc2ccc(F)cc2)cc1', '30.5 µM'),
  ('O=C(Cn1c(=O)ccn(CCCCCOc2ccc(Br)cc2)c1=O)Nc1ccc(C(=O)c2ccccc2)cc1', '11.5 µM');

Data point: `O=C(Cn1c(=O)c(I)cn(CCCCCOc2ccc(Br)cc2)c1=O)Nc1ccc(Oc2ccccc2)cc1` ; CC50 = 29.7 µM

Data point: `N#Cc1ccc(OCCCCCn2ccc(=O)n(CC(=O)Nc3ccc(Oc4ccccc4)cc3)c2=O)cc1` ; CC50 = 10.5 µM
